Assay System: c-Src SH2;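 also: peptide library displayed on the E. coli surface as eCPX fusions, selected cells deep-sequenced, score is each peptide's frequency after selection divided by its frequency in the input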
Procedure Details: SH2 binding enrichment of the phosphorylated peptide, bacterial display (enrichment ratio); higher = better substrate or ligand; peptides without Tyr show the background
Quantity Name: SH2 binding enrichment

GIVEEYQLPFF [BMPR1A_Y453_YF] ... 0.438
AVLQPYIFVAT [CFTR_Y1014] ... 0.329
DLNATYRTIQG [U2SURP_Y634] ... 0.813

(P) CERFSYYGMKA [SLC15A2_Y60]
(Q) SSMIDYNPLEK [MYOC_Y479]
(R) GNHVSYFQSDG [CACNA1C_Y1757_YF]
(S) RHLREYQDLLN [DES_Y388]
Inquiry: Rank order required: SH2 binding enrichment, descending. Dear reader, please state the labels in the requested order.
Reply text: S, P, R, Q
(S: 2.29, P: 1.08, R: 0.618, Q: 0.373)
